Where do these numbers come from? They come from patent US20090291081A1.

Examples of binders with documented IL-1α IC50 follow.
system.under.test: T1, human IL-1α (human, UniProt P01583 113-271)
T1 sequence (looked up): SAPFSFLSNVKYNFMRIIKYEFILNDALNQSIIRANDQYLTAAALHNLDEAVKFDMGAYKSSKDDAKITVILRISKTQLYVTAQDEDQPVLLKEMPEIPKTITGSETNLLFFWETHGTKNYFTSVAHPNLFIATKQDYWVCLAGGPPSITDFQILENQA
test.method.notes: cell-based or functional assay
Give the value, in units of nM, as a plain number.

ABT2-108/ABT1-122-554 hu IgG1/K wt (bispecific antibody, V domains shown) VH: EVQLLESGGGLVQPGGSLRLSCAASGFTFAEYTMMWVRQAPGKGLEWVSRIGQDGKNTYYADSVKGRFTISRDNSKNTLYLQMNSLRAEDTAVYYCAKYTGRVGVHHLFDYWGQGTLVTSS VL: DIQMTQSPSSLSASVGDRVTITCRASQPIWTELNWYQQKPGKAPKLLIYGSSSLQSGVPSRFSGSGSGTDFTLTISSLQPEDFATYYCQQFAYFPATFGQETKVEIKR    150
ABT2-108-521/ABT1-122 hu IgG1/K wt (bispecific antibody, V domains shown) VH: EVQLLESGGGLVQPGGSLRLSCAASGFTFAEYTMMWVRQAPGKGLEWVSRIGQDGKNTYYADSVKGRFTISRDNSKNTLYLQMNSLRAEDTAVYYCAKYTGRILGHHLFDYWGQGTLVTVSS VL: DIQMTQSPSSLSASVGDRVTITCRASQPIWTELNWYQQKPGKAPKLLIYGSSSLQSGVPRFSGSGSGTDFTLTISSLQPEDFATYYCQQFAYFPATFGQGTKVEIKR    1000

Okay, now this binder:
Input line: Which IL-1α IC50 is listed for ABT2-65-166/ABT1-95-15 hu IgG1/K wt (bispecific antibody, V domains shown) VH: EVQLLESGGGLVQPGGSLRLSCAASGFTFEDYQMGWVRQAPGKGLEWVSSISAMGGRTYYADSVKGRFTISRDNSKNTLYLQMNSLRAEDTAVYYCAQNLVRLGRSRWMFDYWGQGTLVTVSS VL: DIQMTQSPSSLSASVGDRVTITCRASQPIVRNLRWYQQKPGKAPKLLIYSSSYLEPGVPSRFSGSGSGTDFTLTISSLQPEDFATYHCQQGYRWPVTFGQGTKVEIKR ?
Output line: 1.89
